Consider the following molecules; for each one, report its pKa.
- Test Name: Dissociation constant, pKa of compound
- Assay type: physicochemical
Just the number, please.

Report pKa, nothing else, for this molecule: `Cc1ccc(NC(=O)N2CC[C@@H](CC(F)(F)F)C2)cc1-c1cc(O[C@H](C)CO)nc(N2CCOCC2)c1`
3.8

Report pKa, nothing else, for this molecule: `Cc1ccc(NC(=O)N2CC[C@@H](CC(F)(F)F)C2)cc1-c1cc(N[C@H](C)CO)nc(N2CCOCC2)c1`
5.3

###

Consider the following compounds; for each one, report its logD.
- Test Name: Lipophilicity, logD of compound at pH 7.4
- Format: physicochemical
- Cond: buffer
Just the number, please.

Report logD, nothing else, for this compound: `Cc1ccc(NC(=O)N2CC[C@@H](CC(F)(F)F)C2)cc1-c1cc(N[C@H](C)CO)nc(N2CCOCC2)c1`
3.8

Report logD, nothing else, for this compound: `Cc1ccc(NC(=O)N2CC[C@H](CC(F)(F)F)C2)cc1-c1cc(OCCO)nc(N2CCOCC2)c1`
3.67

Report logD, nothing else, for this compound: `Cc1ccc(NC(=O)N2CC[C@@H](CC(F)(F)F)C2)cc1-c1cc(O[C@H](C)CO)nc(N2CCOCC2)c1`
3.99

Report logD, nothing else, for this compound: `Cc1ccc(NC(=O)N2CCO[C@H](C(F)(F)F)C2)cc1-c1cc(OCCO)nc(N2CCOCC2)c1`
3.46

Report logD, nothing else, for this compound: `Cc1ccc(NC(=O)N2CC[C@H](C(F)(F)F)C2)cc1-c1cc(OCCO)nc(N2CCOCC2)c1`
3.51

Report logD, nothing else, for this compound: `Cc1ccc(NC(=O)N2CC[C@@H](CC(F)(F)F)C2)cc1-c1cc(O[C@@H](C)CO)nc(N2CCOCC2)c1`
3.84

Report logD, nothing else, for this compound: `Cc1ccc(NC(=O)N2CC[C@@H](CC(F)(F)F)C2)cc1-c1cc(OCC(C)(C)O)nc(N2CCOCC2)c1`
3.86

Report logD, nothing else, for this compound: `Cc1ccc(NC(=O)N2CC[C@@H](C(F)(F)F)C2)cc1-c1cc(OCCO)nc(N2CCOCC2)c1`
3.49

Report logD, nothing else, for this compound: `Cc1ccc(NC(=O)N2CC[C@@H](CC(F)(F)F)C2)cc1-c1cc(OCCO)nc(N2CCOCC2)c1`
3.73

Report logD, nothing else, for this compound: `Cc1ccc(NC(=O)N2CC[C@@H](CC(F)(F)F)C2)cc1-c1cc(OC[C@@H](C)O)nc(N2CCOCC2)c1`
3.94
